Origin of the recorded values: patent US5593966A

Let's look at some compounds and their measured Mean inhibition vs. buffer control (n), Cell-free assay.
target: NADPH oxidase (Homo sapiens); construct: Neutrophils were electropermeabilized as described; endogenous in cells; host or cells: electropermeabilized peripheral blood neutrophils (PMN), stimulated with PMA or fMLP; test: Cell-free NADPH oxidase assay (arachidonate-stimulated O2 generation, neutrophil membrane plus cytosol); assay type: biochemical; details: 100 μM synthetic peptide; arachidonate-stimulated O2 production; mean of n experiments in duplicate
Sequence (P14598 whole entry): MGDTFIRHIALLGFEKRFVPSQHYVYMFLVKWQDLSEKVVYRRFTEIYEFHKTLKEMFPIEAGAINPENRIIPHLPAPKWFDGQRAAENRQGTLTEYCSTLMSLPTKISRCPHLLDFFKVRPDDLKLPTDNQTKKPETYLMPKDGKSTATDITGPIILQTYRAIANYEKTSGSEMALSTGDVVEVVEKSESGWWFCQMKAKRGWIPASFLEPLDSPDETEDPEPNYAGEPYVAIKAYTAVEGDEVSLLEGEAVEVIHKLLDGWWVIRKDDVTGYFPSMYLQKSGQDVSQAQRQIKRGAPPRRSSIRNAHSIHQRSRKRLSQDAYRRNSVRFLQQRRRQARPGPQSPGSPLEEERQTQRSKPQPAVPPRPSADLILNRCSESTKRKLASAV
Where a SMILES comes first, the peptide text is derived from it.
State the value with its unit after it.

See these solved cases before continuing.
CSCC[C@H](NC(=O)[C@H](CO)NC(=O)[C@H](Cc1ccccc1)NC(=O)[C@@H](N)C(C)C)C(=O)N[C@@H](Cc1ccccc1)C(=O)N[C@@H](CCC(N)=O)C(=O)NCC(=O)N[C@@H](CCC(=O)O)C(=O)N[C@@H](CCC(=O)O)C(=O)N[C@@H](CO)C(=O)O [VFSMFQGEES] (H-VFSMFQGEES-OH); 10%
CC(C)C[C@H](NC(=O)[C@@H](N)Cc1c[nH]cn1)C(=O)N[C@@H](Cc1ccccc1)C(=O)N[C@@H](CC(N)=O)C(=O)N[C@H](C(=O)N[C@@H](CCC(=O)O)C(=O)N[C@@H](Cc1c[nH]c2ccccc12)C(=O)N[C@@H](CS)C(=O)O)C(C)C [HLFNVEWC] (H-HLFNVEWC-OH); -17%

Turning to the following compound.
Give recorded Mean inhibition vs. buffer control (n), Cell-free assay. CC[C@H](C)[C@H](NC(=O)[C@@H](NC(=O)[C@H](C)NC(=O)[C@H](CCC(N)=O)NC(=O)[C@H](Cc1ccccc1)NC(=O)CNC(=O)[C@H](C)NC(=O)[C@H](Cc1c[nH]cn1)NC(=O)[C@H](C)NC(=O)[C@H](CCCNC(=N)N)NC(=O)[C@H](CCCCN)NC(=O)[C@@H](N)CCCNC(=N)N)[C@@H](C)O)C(=O)O [RKRAHAGFQATI] (H-RKRAHAGFQATI-OH)
-5%
